assay summary: Human GI S9 stability
experimental parameters: s9
Can you tell me half-life at 2 μM for the items I'm about to list?
Give bare numbers, in min.

These solved cases illustrate the format of a correct answer.
>>> result_value("Cc1nc(F)ccc1[C@@H](c1cn(C23CC(C2)C3)nn1)N(C(=O)OCOP(=O)(O)O)c1cc(C#N)c2ncc(C#N)c(NCC(C)(C)C)c2c1 [Example 6]")
25
>>> result_value("Cn1ccc2c([C@@H](c3cn(C45CC(C4)C5)nn3)N(C(=O)OCCCOP(=O)(O)O)c3cc(Cl)c4ncc(C#N)c(NCC(C)(C)C)c4c3)cccc2c1=O [Example 4]")
21

Below: the item to evaluate.
Kindly note the recorded half-life at 2 μM for Cc1nc(F)ccc1[C@@H](c1cn(C23CC(C2)C3)nn1)N(C(=O)OCOP(=O)(O)O)c1cc(C#N)c2ncc(C#N)c(N[C@H](C)C(C)(C)C)c2c1 [Example 10] , which is 26
